Origin of values: the kinase profiling compilation of Christmann-Franck et al. (2016)

target or system: IKBKE (human) (UniProt Q14164)
Sequence (Q14164 whole entry, looked up): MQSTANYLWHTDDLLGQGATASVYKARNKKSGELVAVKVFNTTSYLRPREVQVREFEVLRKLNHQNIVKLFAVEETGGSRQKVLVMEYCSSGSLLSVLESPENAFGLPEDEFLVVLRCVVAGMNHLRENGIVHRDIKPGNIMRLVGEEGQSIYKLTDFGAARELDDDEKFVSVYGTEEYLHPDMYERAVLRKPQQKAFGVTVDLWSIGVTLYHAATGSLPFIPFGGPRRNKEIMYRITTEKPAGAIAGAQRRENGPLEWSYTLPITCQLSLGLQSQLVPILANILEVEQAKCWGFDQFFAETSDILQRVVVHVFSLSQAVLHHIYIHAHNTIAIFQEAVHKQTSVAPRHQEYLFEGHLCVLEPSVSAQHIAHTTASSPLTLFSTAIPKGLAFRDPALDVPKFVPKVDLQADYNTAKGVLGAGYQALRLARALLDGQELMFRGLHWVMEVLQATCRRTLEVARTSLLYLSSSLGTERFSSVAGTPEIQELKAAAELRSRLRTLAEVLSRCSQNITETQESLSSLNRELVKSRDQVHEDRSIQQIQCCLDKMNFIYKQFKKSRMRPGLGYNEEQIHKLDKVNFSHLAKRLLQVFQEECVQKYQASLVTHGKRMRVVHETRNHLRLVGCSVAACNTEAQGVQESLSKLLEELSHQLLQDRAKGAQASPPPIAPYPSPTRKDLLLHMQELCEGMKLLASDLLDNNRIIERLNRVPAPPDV
assay method text: radiometric filter-binding kinase assay
experimental parameters: compound 1.0 µM
reported metric: residual activity (%)
Reply numerically in %, unit not repeated.

Worked cases, answers included:
NC1(c2ccc(-c3nc4ccn5c(=O)[nH]nc5c4cc3-c3ccccc3)cc2)CCC1 ... 90
Cc1ccc(=O)n(-c2ccccc2)c1 ... 104
C[C@H]1CCCC(=O)CCC/C=C/c2cc(O)cc(O)c2C(=O)O1 ... 95
CCNc1nc(Nc2cc(F)c(C(=O)N3CCOCC3)cc2OC)ncc1C(F)(F)F ... 78
CCn1c(-c2nonc2N)nc2cncc(CNC3CCNCC3)c21 ... 110

Request: Could you share which residual activity value was measured for "CNc1nc(-c2ccc3c(N)n[nH]c3c2)cc(N2C[C@@H](C(=O)NC3CCCCC3)CC[C@H]2C)n1" ?
Response: 91

====

target or system: GCK (human) (UniProt Q12851)
Sequence (Q12851 whole entry, looked up): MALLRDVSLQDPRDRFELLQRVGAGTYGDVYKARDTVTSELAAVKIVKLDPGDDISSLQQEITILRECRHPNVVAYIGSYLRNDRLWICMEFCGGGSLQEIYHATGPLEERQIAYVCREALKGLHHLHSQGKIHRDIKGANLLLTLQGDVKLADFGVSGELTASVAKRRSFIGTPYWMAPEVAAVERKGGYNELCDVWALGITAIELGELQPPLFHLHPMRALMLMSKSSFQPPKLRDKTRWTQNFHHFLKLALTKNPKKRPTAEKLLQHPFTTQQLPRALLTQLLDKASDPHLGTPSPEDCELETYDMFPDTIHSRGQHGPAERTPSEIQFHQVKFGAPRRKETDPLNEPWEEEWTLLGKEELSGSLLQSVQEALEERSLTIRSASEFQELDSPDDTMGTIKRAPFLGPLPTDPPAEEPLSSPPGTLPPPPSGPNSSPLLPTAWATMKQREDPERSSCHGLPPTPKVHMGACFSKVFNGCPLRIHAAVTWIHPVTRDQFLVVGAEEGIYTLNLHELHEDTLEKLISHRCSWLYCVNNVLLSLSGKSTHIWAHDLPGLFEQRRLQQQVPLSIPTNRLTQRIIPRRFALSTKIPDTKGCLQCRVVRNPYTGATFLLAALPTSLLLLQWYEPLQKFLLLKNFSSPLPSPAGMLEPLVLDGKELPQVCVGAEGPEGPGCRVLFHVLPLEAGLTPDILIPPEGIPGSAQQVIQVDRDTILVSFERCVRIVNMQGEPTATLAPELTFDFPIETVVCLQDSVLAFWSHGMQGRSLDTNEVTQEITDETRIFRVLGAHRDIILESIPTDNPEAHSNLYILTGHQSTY
assay method text: radiometric filter-binding kinase assay
experimental parameters: compound 0.01 µM
Below, each entry is listed with its recorded residual activity.
Remember to put the unit after the number in your answer.

Worked cases, answers included:
CNc1nc(-c2ccc3c(N)n[nH]c3c2)cc(N2C[C@@H](C(=O)NC3CCCCC3)CC[C@H]2C)n1 ... 109%
COc1ccc(N(C(=O)Nc2c(C)cccc2C)c2cc(Nc3ccc(N4CCN(C)CC4)cc3)ncn2)c(OC)c1 ... 103%
O=C(Nc1nc2cc(C(F)(F)F)cc(NC3CC3)n2n1)c1cccnc1 ... 112%
COc1cc(O)c2c(c1)[C@H]1OC1C[C@H](O)[C@H](O)C(=O)/C=C\C[C@H](C)OC2=O (stereo not given in full) ... 114%

Turning now to a further record.
Request: Could you share which residual activity value was measured for CNC(=O)C1[C@H]2O[C@@](C)([C@@H]1N)n1c3ccccc3c3c4c(c5c6ccccc6n2c5c31)C(=O)NC4 (stereo not given in full) ?
Response: 6%

====

Below, each entry is listed with its recorded residual activity.
target or system: BRSK2 (human)
assay method text: radiometric filter-binding kinase assay
experimental parameters: compound 1.0 µM

Request: Could you share which residual activity value was measured for "Cc1cc(SCc2sc(-c3ccc(C(F)(F)F)cc3)nc2C)ccc1OCC(=O)O" ?
Response: 91%

Request: Could you share which residual activity value was measured for "Cc1cc(NC(=O)c2cccc(NC(=O)/C=C/CN(C)C)c2)ccc1Nc1nccc(-c2cccnc2)n1" ?
Response: 77%

Request: Could you share which residual activity value was measured for "NC(=O)c1cc2c(-c3cccc(-c4ccccc4)c3)cnc(N)c2s1" ?
Response: 108%

Request: Could you share which residual activity value was measured for "O=C(Nc1ccccc1-c1cn2c(CN3CCNCC3)csc2n1)c1cnc2ccccc2n1" ?
Response: 97%

Request: Could you share which residual activity value was measured for "Cn1c(=O)c2c(ncn2C)n(C)c1=O" ?
Response: 97%

====

target or system: EPHB4 (human) (UniProt P54760)
Sequence (P54760 whole entry, looked up): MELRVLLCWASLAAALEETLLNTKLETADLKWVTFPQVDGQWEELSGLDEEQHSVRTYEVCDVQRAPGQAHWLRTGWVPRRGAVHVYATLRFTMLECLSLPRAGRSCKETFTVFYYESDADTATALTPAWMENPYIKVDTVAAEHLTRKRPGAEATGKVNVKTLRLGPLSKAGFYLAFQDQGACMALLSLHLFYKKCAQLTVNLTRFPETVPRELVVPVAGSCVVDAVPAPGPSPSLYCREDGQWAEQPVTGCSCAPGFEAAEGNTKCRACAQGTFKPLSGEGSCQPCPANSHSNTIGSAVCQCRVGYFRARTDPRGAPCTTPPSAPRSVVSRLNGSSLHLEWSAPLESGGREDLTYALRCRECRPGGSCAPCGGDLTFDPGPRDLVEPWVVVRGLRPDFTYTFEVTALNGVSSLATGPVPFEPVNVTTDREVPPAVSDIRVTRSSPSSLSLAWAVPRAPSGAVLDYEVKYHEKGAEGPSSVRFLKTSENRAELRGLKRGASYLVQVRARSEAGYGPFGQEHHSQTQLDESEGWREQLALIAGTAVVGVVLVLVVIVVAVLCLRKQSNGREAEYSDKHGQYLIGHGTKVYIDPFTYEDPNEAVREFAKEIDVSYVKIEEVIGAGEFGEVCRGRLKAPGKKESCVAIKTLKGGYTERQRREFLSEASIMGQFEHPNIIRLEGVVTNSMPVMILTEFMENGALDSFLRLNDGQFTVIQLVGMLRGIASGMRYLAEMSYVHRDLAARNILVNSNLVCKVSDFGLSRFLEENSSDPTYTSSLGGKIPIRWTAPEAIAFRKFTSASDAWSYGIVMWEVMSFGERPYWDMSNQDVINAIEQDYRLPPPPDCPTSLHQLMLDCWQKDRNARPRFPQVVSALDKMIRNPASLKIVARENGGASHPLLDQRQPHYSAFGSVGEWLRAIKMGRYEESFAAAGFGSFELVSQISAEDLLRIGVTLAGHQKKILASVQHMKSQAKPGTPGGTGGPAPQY
assay method text: radiometric filter-binding kinase assay
experimental parameters: compound 1.0 µM
Param label: returns rule met when residual activity < 80%, returns rule not met otherwise, including exact equality.

CCNc1nc(Nc2cc(F)c(C(=O)N3CCOCC3)cc2OC)ncc1C(F)(F)F ... rule not met
O=C(N[C@@H](COc1ccc2[nH]c(=O)[nH]c2c1)c1ccccc1)c1cccn(Cc2ccc(F)c(F)c2)c1=O ... rule not met
Cc1cccc(-c2nn(C(=S)Nc3ccccc3)cc2-c2ccnc3ccccc23)n1 ... rule not met
C=CC(=O)N1CCC[C@@H](n2nc(-c3ccc(Oc4ccccc4)cc3)c3c(N)ncnc32)C1 ... rule met

Please turn your attention to the following entry.
Request: Is residual activity of CNC(=O)C1[C@H]2O[C@@](C)([C@@H]1N)n1c3ccccc3c3c4c(c5c6ccccc6n2c5c31)C(=O)NC4 (stereo not given in full) strictly below 80%?
Response: rule met

====

Below, each entry is listed with its recorded residual activity.
target or system: ULK1 (human)
assay method text: radiometric filter-binding kinase assay
experimental parameters: compound 0.1 µM
Reply numerically in %, unit not repeated.

Request: Recall the recorded residual activity for COc1cc(O)c2c(c1)[C@H]1OC1C[C@H](O)[C@H](O)C(=O)/C=C\C[C@H](C)OC2=O (stereo partly drawn) with ULK1 (human) and state it.
Response: 88

Request: Recall the recorded residual activity for CNC(=O)C1[C@H]2O[C@@](C)([C@@H]1N)n1c3ccccc3c3c4c(c5c6ccccc6n2c5c31)C(=O)NC4 (stereo partly drawn) with ULK1 (human) and state it.
Response: 43

Request: Recall the recorded residual activity for "CN(C)C/C=C/C(=O)Nc1cccc(C(=O)Nc2ccc(Nc3nccc(-c4cccnc4)n3)cc2)c1" with ULK1 (human) and state it.
Response: 37

====

target or system: MKNK1 (human)
assay method text: radiometric filter-binding kinase assay
experimental parameters: compound 10.0 µM
Below, each entry is listed with its recorded residual activity.
Reply numerically in %, unit not repeated.

Cn1nc(Nc2ccc(F)cc2)c2c(N)ncnc21 ... 92
FC(F)(F)c1ccc(-c2ccc(Oc3cncc4sc(-c5nn[nH]n5)cc34)cc2)cc1 ... 55
O=S(=O)(c1ccc(F)c2nonc12)N1CCN(c2ncc(C(F)(F)F)cc2Cl)CC1 ... 70
NC(=O)Nc1ccc2c(c1)/C(=C/c1cc(-c3cccnc3)c[nH]1)C(=O)N2 ... 30

Turning now to a further record.
Request: Could you share which residual activity value was measured for "Cc1ccc(-c2ccc3c(ccc4sc5c(c43)NC[C@@H](C)NC5=O)n2)cn1" ?
Response: 83

====

target or system: MAP2K6 (human)
assay method text: radiometric filter-binding kinase assay
experimental parameters: compound 1.0 µM
reported metric: residual activity (%)
Reply numerically in %, unit not repeated.

Worked cases, answers included:
COc1cc(O)c2c(c1)/C=C/C[C@H](O)[C@H](O)C(=O)/C=C\C[C@H](C)OC2=O ... 10
CCn1c(-c2nonc2N)nc2cncc(CNC3CCNCC3)c21 ... 90
CNc1nc(-c2ccc3c(N)n[nH]c3c2)cc(N2C[C@@H](C(=O)NC3CCCCC3)CC[C@H]2C)n1 ... 87
CNC(=O)C1[C@H]2O[C@@](C)([C@@H]1N)n1c3ccccc3c3c4c(c5c6ccccc6n2c5c31)C(=O)NC4 (stereo not given in full) ... 5
C=C1C(=O)OC2C1CC/C(C)=C/CCC1(C)OC21 (stereo not given) ... 96

Request: Could you share which residual activity value was measured for "O=C(NCCCNc1nc(Nc2cccc(CN3CCOCC3)c2)ncc1C1CC1)C1CCC1" ?
Response: 113

Request: Could you share which residual activity value was measured for "O=C(NOC[C@H](O)CO)c1ccc(F)c(F)c1Nc1ccc(I)cc1Cl" ?
Response: 93

Request: Could you share which residual activity value was measured for COc1cc(O)c2c(c1)[C@H]1OC1C[C@H](O)[C@H](O)C(=O)/C=C\C[C@H](C)OC2=O (stereo not given in full) ?
Response: 20

Request: Could you share which residual activity value was measured for "Oc1ccc2ccccc2c1SSc1c(O)ccc2ccccc12" ?
Response: 93

Request: Could you share which residual activity value was measured for "NC(=O)c1c(NC(=O)C2CC2)sc2c1CCCC2" ?
Response: 109

====

target or system: YES1 (human) (UniProt P07947)
Sequence (P07947 whole entry, looked up): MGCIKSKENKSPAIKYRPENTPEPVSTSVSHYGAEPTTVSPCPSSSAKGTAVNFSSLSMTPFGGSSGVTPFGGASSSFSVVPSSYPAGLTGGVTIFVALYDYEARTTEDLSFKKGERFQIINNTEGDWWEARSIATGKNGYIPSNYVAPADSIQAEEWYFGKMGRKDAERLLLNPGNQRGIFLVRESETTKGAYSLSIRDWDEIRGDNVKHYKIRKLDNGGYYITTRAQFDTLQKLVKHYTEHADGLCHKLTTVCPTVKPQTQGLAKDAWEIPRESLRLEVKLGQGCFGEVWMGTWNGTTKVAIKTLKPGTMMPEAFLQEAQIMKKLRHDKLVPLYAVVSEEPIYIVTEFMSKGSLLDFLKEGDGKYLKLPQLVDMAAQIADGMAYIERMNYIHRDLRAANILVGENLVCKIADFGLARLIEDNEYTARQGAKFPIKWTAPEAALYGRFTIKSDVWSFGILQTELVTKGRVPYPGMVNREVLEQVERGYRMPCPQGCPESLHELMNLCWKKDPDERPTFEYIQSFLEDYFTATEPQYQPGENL
assay method text: radiometric filter-binding kinase assay
experimental parameters: compound 1.0 µM
Hi, to clarify the labels: class 1 covers residual activity from 90% upward, class 0 covers anything below 90%.

The following compounds have reported results that may help.
COc1ccc(N(C(=O)Nc2c(C)cccc2C)c2cc(Nc3ccc(N4CCN(C)CC4)cc3)ncn2)c(OC)c1 ... class 0
NC(=O)c1cc(-c2ccnc(NC3CCCCC3)c2)nc(N2CCNCC2)c1 ... class 1
CCc1cncnc1N1CCN(Cc2nc3cc(C(F)(F)F)ccc3[nH]2)CC1 ... class 0
Cc1cc(SCc2sc(-c3ccc(C(F)(F)F)cc3)nc2C)ccc1OCC(=O)O ... class 1
O=C1NC(=S)N[C@@H]1Cc1c[nH]c2ccccc12 ... class 0

Please turn your attention to the following entry.
Request: Does the compound CC1=C(CO)C(=O)O[C@@H]([C@@H](C)[C@H]2CC[C@H]3[C@@H]4C[C@H]5O[C@]56[C@@H](O)C=CC(=O)[C@]6(C)C4CC[C@]23C)C1 (some centres undefined) have recorded residual activity that is 90% or more?
Response: class 1

====

target or system: TSSK1B (human)
assay method text: radiometric filter-binding kinase assay
experimental parameters: compound 1.0 µM
Param label: returns true when residual activity < 90%, returns false otherwise, including exact equality.

Request: Is residual activity of CNC(=O)C1[C@H]2O[C@@](C)([C@@H]1N)n1c3ccccc3c3c4c(c5c6ccccc6n2c5c31)C(=O)NC4 (some centres undefined) strictly below 90%?
Response: true

Request: Is residual activity of COc1cc(O)c2c(c1)[C@H]1OC1C[C@H](O)[C@H](O)C(=O)/C=C\C[C@H](C)OC2=O (some centres undefined) strictly below 90%?
Response: false

Request: Is residual activity of "CCNc1nc(Nc2cc(F)c(C(=O)N3CCOCC3)cc2OC)ncc1C(F)(F)F" strictly below 90%?
Response: true
